tested on: MOLT-4 leukemia; experiment: NCI tumour cell line growth inhibition, 48 h
measurement_kind: TGI

Field: TGI (MOLT-4 leukemia). Entry: C=C1CC(C/C=C(\C)CC2CC(=C)C(=O)O2)OC1=O (centres undefined)
> 100 µM

Entry to check: COc1ccc(NC(=O)O[C@H]2[C@H](O[C@H]3[C@@H](O)COC(O[C@H]4C[C@H]5[C@@H]6CC=C7C[C@@H](O)CC[C@]7(C)[C@H]6CC[C@]5(C)[C@H]4[C@H](C)C(=O)CCC(C)C)[C@@H]3OC(C)=O)OC[C@@H](O)[C@@H]2O)cc1 (some centres undefined)
0.34 µM

Entry to check: CCCCCC(=O)Cc1cc(OC)cc2c1C(=O)Oc1cc(O)c(C(=O)O)c(CC(=O)CCCCC)c1O2
> 100 µM

Entry to check: CC1OC(OC2C(O[C@@H]3C[C@@H]4CC[C@@H]5[C@H](CC[C@]6(C)[C@@H]7[C@H](C[C@@H]56)O[C@]5(CC[C@@H](C)CO5)[C@H]7C)[C@@]4(C)C[C@H]3O)OC(CO)C(OC3OC(CO)C(O)C(O)C3O)C2O)C(O)C(O)C1O (some centres undefined)
3.67 µM

* * *

system: HL-60(TB) leukemia; experiment: NCI tumour cell line growth inhibition, 48 h
measurement_kind: TGI (µM)
// units = µM; emit number, no label

Which TGI is listed for Oc1ccc2ccccc2c1Cc1c(O)ccc2ccccc12 ?
38.7

Entry to check: Cc1cc2nc3c4ccccc4n(CCN(C)C)c3nc2cc1C
6.26

Entry to check: ClC1=C(Cl)C(Cl)=C(Cl)C1=Cc1ccc(Cl)cc1
5.86

* * *

system: NCI-H460 lung
Your response should consist of one outcome taken from True for active, False for inactive

Hi team, can someone confirm the assay call for COc1cnc2c(c1)C(=O)c1c-2n(CCCN2CCN(CCO)CC2)c(=O)c2cc([N+](=O)[O-])ccc12 ?
True

Entry to check: O=[N+]([O-])c1ccc(-c2ccccc2)c([As](=O)(O)O)c1
False

Entry to check: CC[C@@]1(OC(=O)CN)C(=O)OCc2c1cc1n(c2=O)Cc2cc3c(N)c4c(cc3nc2-1)OCO4
True

Entry to check: CCN1C(=O)N(CC)C2C1NN=c1s/c(=C\c3ccccc3)c(=O)n12 (stereo not given)
True

Entry to check: C[C@@H]1CN2[C@H]3[C@@H]1CC[C@]31CCC(=O)O[C@]1(C)[C@@H]1CC[C@H]3CCC=C3[C@@H]12
False

* * *

So I've got a bunch of molecules here, and I need their TGI values.
tested on: NCI/ADR-RES ovarian; test: NCI tumour cell line growth inhibition, 48 h
Where a SMILES comes first, the peptide text is derived from it. The star is where a group is joined. Boc = CC(C)(C)OC(=O)*

Field: TGI (NCI/ADR-RES ovarian). Entry: CCc1ccccc1-n1c(N)c(C#N)c(-c2ccc(OC)c(OC)c2)c(C#N)c1=O
> 100 µM

Entry to check: O=C1c2cccc3cc([N+](=O)[O-])cc(c23)C(=O)N1O
> 100 µM

Entry to check: COC(=O)CNC(=O)Nc1cc(N2C(=O)ON3C2C(C)(C)N(O)C3(C)C)ccc1C (stereo not given)
> 100 µM

Entry to check: NC(N)=NS(=O)(=O)c1ccc(NNc2c3ccccc3nc3c(C(=O)Nc4ccc(S(N)(=O)=O)cc4)cccc23)cc1
> 100 µM

Entry to check: Cc1ccc(-c2cc(/C=N/O)on2)cc1
> 100 µM

Entry to check: CC1(C)S[C@@H]2[C@H](NC(=O)/C=C/c3ccccc3)C(=O)N2[C@H]1C(=O)O
> 100 µM

Entry to check: COc1ccc2c(c1)c1c3c(ccc4ncn2c43)N(CCN(C)C)CCN=1
1.96 µM

Entry to check: FC(F)(F)C1=NC(=NNc2nnc(-c3ccccc3)c(-c3ccccc3)n2)N=C(C(F)(F)F)C1
> 100 µM

Entry to check: CC(=O)NNc1nc(C)c(C(/C=C/c2ccc(NC(C)=O)cc2)=N/NS(=O)(=O)c2ccc(C)cc2)s1
> 100 µM

Entry to check: Cc1c(N2C(=O)/C(=C\c3ccc(N(C)C)cc3)N=C2c2ccccc2)c(=O)n(-c2ccccc2)n1C
> 100 µM

Entry to check: CCOC(=O)C(CC(C)C)NC(=O)C(Cc1ccccc1)NC(=O)CNC(=O)OC(C)(C)C (stereo not drawn) (Boc-Gly-Phe-Leu-OEt; configuration not given here)
> 100 µM

Entry to check: COC(=O)Nc1nc2ccc(Sc3ccccc3)cc2[nH]1
0.461 µM

Entry to check: COc1cc(NCc2ccc3n2-c2ccccc2OC3)cc(OC)c1OC
22.5 µM

Entry to check: CCNCCNc1cc(-c2cccc(C(F)(F)F)c2)c(C#N)c2nc3ccccc3n12
3.86 µM

Entry to check: O=c1c2ncn(CCCl)c2n(-c2ccccc2)c(=S)n1-c1ccccc1
> 100 µM

Entry to check: O=C1N[C@@H]2c3c(Br)sc(Br)c3C(=O)[C@@H]2N1
> 70.6 µM

Entry to check: CCOC(=O)CCC(NC(=O)c1ccc(Oc2nc3ccccc3nc2C(=O)OCC)cc1)C(=O)OCC (stereo not given)
> 100 µM

Entry to check: ClCC1(CCl)COC1
> 100 µM

Entry to check: Nc1cnc2c(c1)c(=O)nc1n2CCS1
> 100 µM

Entry to check: c1ccc2nc3cc4c(cc3nc2c1)NC12CCCCC1CC1=C(CCCC1)N42 (stereo not given)
> 10 µM
